# MEASURED_TARGET: Cellular tumor antigen p53 (Homo sapiens) (UniProt P04637)
# Sequence (P04637 whole entry, looked up): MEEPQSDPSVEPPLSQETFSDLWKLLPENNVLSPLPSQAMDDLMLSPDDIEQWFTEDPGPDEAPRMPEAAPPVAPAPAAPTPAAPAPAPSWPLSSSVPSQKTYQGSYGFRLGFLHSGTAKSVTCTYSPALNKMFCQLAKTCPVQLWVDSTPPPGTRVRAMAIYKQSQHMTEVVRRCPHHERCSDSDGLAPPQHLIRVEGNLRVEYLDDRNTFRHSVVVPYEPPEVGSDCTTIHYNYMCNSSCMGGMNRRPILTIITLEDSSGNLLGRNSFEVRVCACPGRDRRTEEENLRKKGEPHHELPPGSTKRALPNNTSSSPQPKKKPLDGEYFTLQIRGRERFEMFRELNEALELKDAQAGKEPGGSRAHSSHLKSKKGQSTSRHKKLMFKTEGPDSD
# PROTOCOL_DETAILS: Primary qHTS for small molecule compounds that upregulate eGFP-tagged delta133p53alpha (in N-terminal) cells. (AID 2060322);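 note: cells pre-induced with doxycycline then dosed without doxycycline; series mostly up to about 56 µM; 0% = DMSO vehicle and 100% = reference activator; nearly all actives have a fitted effect of over 75% in size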
# SETTINGS: NCI-H358 eGFP-delta133p53alpha fluorescence, 24 h; hits give high values
Results filed as inconclusive are left out.
Listing of entries alongside the reported activation.

MOLECULE | activation / %
CC(=O)NC(C(=O)OC1CCC(C)(C)C2CC=C3C(=O)OCC3(O)C12C)C(C)C (configuration not stated) | -16.8
CC(C)S(=O)(=O)NC[C@H](C)c1ccc(NC(=O)c2cc(F)cc(F)c2)cc1 | -15
CCCCC/C=C\C/C=C\CCCCCCCC(=O)NC(C)c1ccccc1 (configuration not stated) | 0
COC(=O)N1CC2(CC2)C[C@H](C(=O)NO)[C@H]1C(=O)N1CCN(c2ccccc2)CC1 | 12.6
C=C1CC23CC(=O)C4C(CO)(CO)CCCC4(C)C2CCC1C3 (configuration not stated) | -3.05
Cc1cc(OCCN2CCOCC2)nn1-c1ccc2ccccc2c1 | 4.3
Cc1csc(N(C(=O)CSc2ccc(-c3ccccc3)nn2)C2CC2)n1 | 10.5
CC(C)C1=CC2C(CC[C@]2(C)O)[C@](C)(O)CC1 (some centres not stated) | -6.25
CC(C)=CCCC(C)=CCCC(C)=CCSc1ccccc1C(=O)O | 4.74
Cc1ccc(F)cc1S(=O)(=O)N[C@@H]1CCN(Cc2ccc(OC(C)C)cc2)C1 | -2.39
Clc1cc2c(NC3CCCC3)nnc(-c3ccncc3)c2cc1Cl | -9
C=C(F)c1sc(CNCCCNc2cc(=O)c3ccccc3[nH]2)c(C)c1Br | 18.1
Cc1nc(C#Cc2ccnc(Cl)c2)c(C)n1-c1ccc(OC(F)(F)F)cc1 | -7.16
Cn1cc(-c2ccc3c(c2)CCN3C(=O)Cc2cccc(C(F)(F)F)c2)c2c(N)ncnc21 | -11.6
CC(C)(O)C1CCC(C)(C2CCC3(C)C4CCC5C(C)(C(=O)OC6OC(CO)C(O)C(O)C6O)C(O)CC(O)C56CC46CCC23C)O1 (configuration not stated) | -11.5
C/C(=C/CO)CC[C@H]1[C@]2(C)C[C@H](O)CC(C)(C)[C@H]2CC[C@]1(C)O | -9.92
CC(C)C(C)C(O)C1CC23CC(=O)C4(O)C(=C2CCC3C1C)C=CC1(O)CC(O)CCC14C (configuration not stated) | 15.3
CCc1c(Cl)c(O)c(Cl)c(O)c1C(=O)O[C@H]1[C@H](O)[C@H](OC)[C@H](OC/C2=C\C=C\C[C@H](O)/C(C)=C\[C@H](CC)[C@@H](O[C@@H]3OC(C)(C)[C@@H](OC(=O)C(C)C)[C@H](O)[C@@H]3O)/C(C)=C/C(C)=C/C[C@@H]([C@@H](C)O)OC2=O)O[C@@H]1C | -0.333
CCC(C)C(=O)OC12C(OC(C)=O)C(C)C3(O)C(C=C(CO)CC4(O)C(=O)C(C)=CC43)C1C2(C)C (configuration not stated) | -19.1
CC(C)(C)OC(=O)N[C@H]1CCCCCC=C[C@@H]2C[C@@]2(C(=O)NS(=O)(=O)C2CC2)NC(=O)[C@@H]2C[C@@H](OC(=O)N3Cc4cccc(F)c4C3)CN2C1=O | 5.4
Nc1nc(=O)n([C@H]2C[C@H](O)[C@@H](CO)O2)cc1F | -4.59
CC[C@@H]1C(=O)N(C)c2cnc(Nc3ccc(C(=O)NC4CCN(C)CC4)cc3OC)nc2N1C1CCCC1 | 7.53
C=CCn1c(=O)c2c(nc(-c3ccc(S(=O)(=O)O)cc3)n2C)n(C)c1=O | -9.98
O=c1[nH]c2ccccc2n1CCN1CCN(c2cccc(C(F)(F)F)c2)CC1 | -3.34
CCCCCCCCCCC(C)(C)C(=O)Nc1c(OC)cc(OC)cc1OC | -40.6
CN(C/C=C/C#CC(C)(C)C)Cc1cccc2ccccc12 | -0.565
O=C(Nc1cc(-c2ccccc2)nn1-c1ccccc1)c1ccc([N+](=O)[O-])cc1 | -11
